test system: LOX IMVI melanoma; experiment: NCI tumour cell line growth inhibition, 48 h

| compound | TGI |
| --- | --- |
| CCOC(=O)C1SC(=Nc2cccc(Cl)c2C)N=C1C (centres undefined) | 32 µM |
| CC(=O)OCC(OC(C)=O)C(OC(C)=O)C(/C=N\Nc1nc2ccccc2c(=O)[nH]1)=N\Nc1nc2ccccc2c(=O)[nH]1 (centres undefined) | > 100 µM |
| NS(=O)(=O)OCC1OC(n2cnc3cncnc32)C(O)C1O (centres undefined) | 0.0548 µM |
| COC(=O)C(=O)C(C(=O)C(=O)Nc1cccc(C(C)=O)c1)c1nc2ccc([N+](=O)[O-])cc2[nH]c1=O (centres undefined) | > 100 µM |
| C=C1CC2CCCC12C=O (centres undefined) | > 10 µM |
| C=CCC(N[C@@H](CO)c1ccccc1)c1cn(Cc2ccccc2Cl)c(=O)n(Cc2ccccc2Cl)c1=O (some centres undefined) | > 100 µM |
| Cc1c(O)c2ccccc2oc1=O | > 100 µM |
| N.N.NCCCCCN.O=C([O-])CCl.O=C([O-])CCl.O=C([O-])CCl.O=C([O-])CCl.[Pt+4].[Pt+4] | > 100 µM |
| CN(C)c1ccc(/C=C/C(=O)[O-])cc1.CN(C)c1ccc(/C=C/C(=O)[O-])cc1.[Cu+2] | > 70.8 µM |
| CCCC(=O)NC(Nc1cc(C)ccn1)(C(=O)OCC)C(F)(F)F (centres undefined) | > 100 µM |
| O=C1/C(=N\O)c2ccccc2S1(=O)=O | > 100 µM |
| Nc1c(-c2cn(Cc3ccccc3)c3ccccc23)[n+]([O-])c2ccccc2[n+]1[O-] | > 100 µM |
| COc1cc2nccc(Oc3ccc(NC(=O)NC4CC4)c(Cl)c3)c2cc1C(N)=O | > 100 µM |
| CC(=O)OCC(C)C1=C(OC(C)=O)C(=O)C2(C)C/C=C(/C)CC/C=C(\C)CCC(OC(C)=O)C(C)CCC12 (centres undefined) | 35 µM |
| CCN(CC)CC(C)(C)C(=O)/C=C/c1cccc(/C=C/C(=O)C(C)(C)CN(CC)CC)c1 | 0.37 µM |
| COc1cc(/C=C2\C[C@H]3[C@@H]4CC=C5C[C@@H](O)CC[C@]5(C)[C@H]4CC[C@]3(C)[C@H]2O)ccc1OCCN1CCCC1 | > 50 µM |
| CC(C)(C)n1c(=O)n2n(c1=O)Cc1cccc3cccc(c13)C2 | 73.5 µM |
| COC(=O)C1=Cc2cc(OC)c(OC)c(OC)c2[C@H](c2cc(OC)c(OC)c(OC)c2)C1C(=O)OC (some centres undefined) | > 100 µM |
| COC(=O)CCC(C)[C@H]1CCC2C3C(C[C@H](OC(C)=O)[C@@]21C)[C@@]1(C)CCC2(C[C@H]1C[C@H]3OC(C)=O)OOC1(CCCC1)OO2 (some centres undefined) | > 100 µM |
